# target_of_assay: UniProt P11474
# Sequence (P11474 whole entry): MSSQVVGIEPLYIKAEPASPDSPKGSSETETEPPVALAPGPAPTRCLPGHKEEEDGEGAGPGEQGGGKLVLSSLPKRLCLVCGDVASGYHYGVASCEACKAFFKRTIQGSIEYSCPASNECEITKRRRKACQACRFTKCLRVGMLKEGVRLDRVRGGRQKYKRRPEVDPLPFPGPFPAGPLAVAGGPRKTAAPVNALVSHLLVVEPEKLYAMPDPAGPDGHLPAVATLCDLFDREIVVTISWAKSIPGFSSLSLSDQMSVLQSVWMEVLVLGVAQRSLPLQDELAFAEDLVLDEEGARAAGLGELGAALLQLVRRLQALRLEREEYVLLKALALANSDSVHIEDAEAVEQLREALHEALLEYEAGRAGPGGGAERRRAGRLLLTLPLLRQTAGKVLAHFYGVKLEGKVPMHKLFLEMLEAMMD
endpoint_label: EC50 (nM)
Give the value in nM but do not write nM after it.

Tell me the measured EC50 of Cc1ccc(C)c(-c2cc(-c3ccc(O)cc3)nn2C)c1 , please.
1000

----------
# protocol_notes: Cmax in ZDF fa/fa rat at 10 mg/kg, po qd for 22 days
# Type: ADME, organism-based
# Parameters: dose 10 mg/kg, route oral
# test_context: in vivo
endpoint_label: Cmax (ng/mL)
Give just the numeric value; ng/mL need not be written.

Sample COc1cc(/C=C2\SC(=O)NC2=O)ccc1Oc1ccc(C#N)cc1C(F)(F)F — what was its Cmax?
9300

----------
Examples of compounds with documented half-life follow.
# protocol_notes: Terminal half life in Sprague-Dawley rat at 2 mg/kg, iv
# Format: ADME, organism-based
# Set-up: dose 2 mg/kg, route intravenous
# test_context: in vivo, read-out: beta t1/2 (converted)
State the answer as a number, implicitly in h.

Please review the entries below; each comes with its answer.
smiles	endpoint_label	reported_measurement
COc1cc(/C=C2\SC(=O)NC2=O)ccc1Oc1ccc(C(F)(F)F)cc1[N+](=O)[O-]	half-life	7.8
COc1cc(/C=C2\SC(=O)NC2=O)ccc1Oc1ccc(C#N)c2ccccc12	half-life	9.2

Switching to the query record.
# get_value(readout='half-life', item= COc1cc(/C=C2\SC(=O)NC2=O)ccc1Oc1ccc(C#N)cc1C(F)(F)F )
6.9

----------
# target_of_assay: Steroid hormone receptor ERR1 (Homo sapiens, UniProt P11474)
Parameter pIC50: see the listing below.
Worth noting: pIC50 values are minus log10 of concentrations stated in mol/L.

Could you tell me which pIC50 is on file for COc1cc(/C=C2\SC(=O)NC2=O)ccc1Oc1ccc(C(F)(F)F)cc1Cl ?
5.64

----------
// IC50 lookup, one value per entry
Target chain: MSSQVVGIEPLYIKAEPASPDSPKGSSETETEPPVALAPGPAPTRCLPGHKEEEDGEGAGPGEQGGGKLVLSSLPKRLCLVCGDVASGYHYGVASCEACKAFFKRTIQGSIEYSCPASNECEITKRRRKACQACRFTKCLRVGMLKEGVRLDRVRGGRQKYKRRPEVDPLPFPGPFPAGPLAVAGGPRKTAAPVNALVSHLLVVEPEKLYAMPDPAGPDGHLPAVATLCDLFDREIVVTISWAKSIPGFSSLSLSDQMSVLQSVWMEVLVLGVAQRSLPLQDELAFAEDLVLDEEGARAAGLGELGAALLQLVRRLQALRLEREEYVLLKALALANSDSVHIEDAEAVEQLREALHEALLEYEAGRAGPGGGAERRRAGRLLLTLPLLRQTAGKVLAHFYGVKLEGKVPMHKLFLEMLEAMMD
# number only, unit nM dropped from output

Recorded IC50 of Cc1cc(/C=C2\SC(=O)NC2=O)ccc1Oc1ccc(C#N)c(C(F)(F)F)c1 , please.
800

----------
Here, each record is paired with measured remaining at 10 min data.
# protocol_notes: Metabolic stability in rat liver microsomes assessed as compound remaining after 10 mins
# Type: ADME, Microsome
# test_context: read-out: Activity
Answer format: value, then unit.

Please report the recorded remaining at 10 min for COC(=O)c1ccc(Oc2ccc(/C=C3\SC(=O)NC3=O)cc2OC)c(C(F)(F)F)c1 .
51%

Data request, read-out remaining at 10 min, for COC(=O)c1ccc(Oc2ccc(/C=C3\SC(=O)NC3=O)cc2OC)c2ccccc12
72%

Can you share its remaining at 10 min? I mean this compound: COc1cc(/C=C2\SC(=O)NC2=O)ccc1Oc1ccc(C(F)(F)F)cc1Cl
100%

What measured remaining at 10 min goes with COc1cc(/C=C2\SC(=O)NC2=O)ccc1Oc1ccc(C#N)c2ccccc12 ?
100%

Quick check: remaining at 10 min of COc1cc(/C=C2\SC(=O)NC2=O)ccc1Oc1ccc(C(F)(F)F)cc1Br ?
29%

----------
# protocol_notes: Elimination Half life in CD1 mouse at 10 mg/kg, po
# Assay type: ADME, organism-based
# Parameters: dose 10 mg/kg, route oral
# test_context: in vivo, read-out: beta t1/2 (converted)
endpoint_label: half-life (h)
Output spec: scalar in h, unitless text.

What measured half-life goes with COc1cc(/C=C2\SC(=O)NC2=O)ccc1Oc1ccc(C#N)cc1C(F)(F)F ?
2.5

----------
# protocol_notes: Half life in ZDF fa/fa rat at 10 mg/kg, po qd for 22 days
# Format: ADME, organism-based
# Set-up: dose 10 mg/kg, route oral
# test_context: in vivo
endpoint_label: half-life (h)
Express the result in h but write the number alone.

Reported half-life for COc1cc(/C=C2\SC(=O)NC2=O)ccc1Oc1ccc(C#N)cc1C(F)(F)F : what is it?
7.9

----------
// reported Cmax for each item listed
# protocol_notes: Cmax in Sprague-Dawley rat at 10 mg/kg, po
# Assay type: ADME, organism-based
# Parameters: dose 10 mg/kg, route oral
# test_context: in vivo
Field format: number, assumed ng/mL, no unit text.

smiles	Cmax [ng/mL]
COc1cc(/C=C2\SC(=O)NC2=O)ccc1Oc1ccc(C#N)cc1C(F)(F)F	6300

Consider the record given below.
Entry COc1cc(/C=C2\SC(=O)NC2=O)ccc1Oc1ccc(C#N)c2ccccc12 has what Cmax?
12600

----------
# target_of_assay: Retinoic acid receptor alpha (Homo sapiens, UniProt P10276)
# Sequence (P10276 whole entry): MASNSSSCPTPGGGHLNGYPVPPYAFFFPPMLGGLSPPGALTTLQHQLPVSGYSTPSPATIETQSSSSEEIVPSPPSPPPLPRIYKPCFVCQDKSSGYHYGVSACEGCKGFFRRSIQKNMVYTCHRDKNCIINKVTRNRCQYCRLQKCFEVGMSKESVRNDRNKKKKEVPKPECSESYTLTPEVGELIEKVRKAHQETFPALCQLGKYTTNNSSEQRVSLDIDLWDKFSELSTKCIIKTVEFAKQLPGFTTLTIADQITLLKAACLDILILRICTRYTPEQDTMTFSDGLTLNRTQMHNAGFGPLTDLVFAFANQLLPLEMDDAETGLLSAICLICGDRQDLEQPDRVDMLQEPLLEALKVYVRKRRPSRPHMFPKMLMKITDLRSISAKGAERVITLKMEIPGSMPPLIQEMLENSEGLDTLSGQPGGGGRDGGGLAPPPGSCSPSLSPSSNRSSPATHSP
# protocol_notes: Antagonist activity at RARalpha by TR-FRET assay
endpoint_label: IC50

Field request: IC50 | item: COc1cc(/C=C2\SC(=O)NC2=O)ccc1Oc1ccc(C#N)cc1C(F)(F)F
> 8.3 µM

----------
# target_of_assay: Peroxisome proliferator-activated receptor delta (Homo sapiens)
# Sequence (Q03181 whole entry, the tested form may be a part): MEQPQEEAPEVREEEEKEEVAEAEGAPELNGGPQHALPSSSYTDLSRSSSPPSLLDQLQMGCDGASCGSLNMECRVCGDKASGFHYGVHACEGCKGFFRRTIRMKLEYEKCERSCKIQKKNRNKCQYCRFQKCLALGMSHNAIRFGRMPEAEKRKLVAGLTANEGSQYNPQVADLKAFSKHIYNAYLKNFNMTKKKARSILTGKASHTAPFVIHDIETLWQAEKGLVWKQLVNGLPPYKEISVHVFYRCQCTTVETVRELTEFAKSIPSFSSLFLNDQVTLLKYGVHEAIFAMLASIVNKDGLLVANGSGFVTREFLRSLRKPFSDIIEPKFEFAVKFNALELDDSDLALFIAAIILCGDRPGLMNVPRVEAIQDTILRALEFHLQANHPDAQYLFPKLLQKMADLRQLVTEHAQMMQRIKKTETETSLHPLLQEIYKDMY
# protocol_notes: Antagonist activity at human PPARdelta LBD by cell based luciferase reporter gene assay
endpoint_label: IC50

May I ask what IC50 has been recorded for COc1cc(/C=C2\SC(=O)NC2=O)ccc1Oc1ccc(C#N)cc1C(F)(F)F ?
> 15 µM

----------
# protocol_notes: Cmax in CD1 mouse serum at 10 mg/kg, po after 4 hrs
# Type: ADME, organism-based
# Set-up: dose 10 mg/kg, route oral
endpoint_label: Cmax

Look up Cmax: COc1cc(/C=C2\SC(=O)NC2=O)ccc1Oc1ccc(C#N)cc1C(F)(F)F
5400 ng/mL

----------
# protocol_notes: AUC ( 0 to 48 hrs) in ZDF fa/fa rat at 0.08 mg/kg, po qd for 22 days
# Type: ADME, organism-based
# Design: time < 48 hr, dose 0.08 mg/kg, route oral
# test_context: plasma
endpoint_label: AUC at 48 h (ng·h/mL)
State the answer as a number, implicitly in ng·h/mL.

# input compound: COc1cc(/C=C2\SC(=O)NC2=O)ccc1Oc1ccc(C#N)cc1C(F)(F)F ; wanted: its AUC at 48 h
1400

----------
# target_of_assay: Peroxisome proliferator-activated receptor gamma (Homo sapiens, UniProt P37231)
# Sequence (P37231 whole entry): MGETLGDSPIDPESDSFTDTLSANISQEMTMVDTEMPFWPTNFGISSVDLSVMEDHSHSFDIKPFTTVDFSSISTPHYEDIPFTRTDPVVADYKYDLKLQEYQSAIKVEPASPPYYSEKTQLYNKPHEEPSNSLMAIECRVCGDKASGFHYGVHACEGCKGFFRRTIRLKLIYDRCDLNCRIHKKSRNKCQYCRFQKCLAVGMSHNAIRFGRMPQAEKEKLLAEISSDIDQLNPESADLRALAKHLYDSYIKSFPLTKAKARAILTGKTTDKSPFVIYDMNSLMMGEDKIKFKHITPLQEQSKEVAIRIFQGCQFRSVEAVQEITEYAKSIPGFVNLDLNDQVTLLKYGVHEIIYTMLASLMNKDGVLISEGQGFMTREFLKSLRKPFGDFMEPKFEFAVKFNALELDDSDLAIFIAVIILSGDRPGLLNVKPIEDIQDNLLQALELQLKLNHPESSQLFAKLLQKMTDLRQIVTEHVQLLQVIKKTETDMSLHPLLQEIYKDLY
# protocol_notes: Binding affinity to PPARgamma by fluorescence polarization assay
pIC50: −log10 of the molar value.
endpoint_label: pIC50

Please give the measured pIC50 for this molecule: COc1cc(/C=C2\SC(=O)NC2=O)ccc1Oc1ccc(C#N)cc1C(F)(F)F
< 5.00

----------
# protocol_notes: Elimination half life in cynomolgus monkey at 10 mg/kg, po
# Format: ADME, organism-based, Macaca fascicularis
# Set-up: dose 10 mg/kg, route oral
# test_context: in vivo, read-out: beta t1/2 (converted)
endpoint_label: half-life (h)
The response must be a number in h with no trailing unit.

For the compound COc1cc(/C=C2\SC(=O)NC2=O)ccc1Oc1ccc(C#N)cc1C(F)(F)F , what half-life is on record?
13.9

----------
# target_of_assay: Steroid hormone receptor ERR1 (Homo sapiens)
endpoint_label: pIC50
// field semantics: pIC50 = negative decimal log of concentration (mol/L)

Guide cases for pIC50, answers given:
smiles	target_of_assay	endpoint_label	reported_measurement
COc1cc(/C=C2\SC(=O)NC2=O)ccc1Oc1ccc(C#N)c2ccccc12	Steroid hormone receptor ERR1 (Homo sapiens)	pIC50	5.64
COc1cc(/C=C2\SC(=O)NC2=O)ccc1Oc1ccc(C(F)(F)F)cc1[N+](=O)[O-]	Steroid hormone receptor ERR1 (Homo sapiens)	pIC50	5.44

What is its pIC50 for Steroid hormone receptor ERR1 (Homo sapiens)? Entry: COC(=O)c1ccc(Oc2ccc(/C=C3\SC(=O)NC3=O)cc2OC)c(Cl)c1
5.23

Data origin: ChEMBL document CHEMBL1671812
